Procedure Details: activity coefficient (dimensionless); of the first substance listed, at infinite dilution; xn = mol fraction of the nth substance listed
Conditions Used: 353.15 K; 101 kPa; Liquid; Chromatography; x1 = 0
# reported activity coefficient; entries follow
Note: the reply should be a number with no unit written.

Check out these entries, answers already filled in.
[
  {
    "Molecule": "C#CCCCCCC [1-octyne] + CCCCCCCCCCCCCC[P+](CCCCCC)(CCCCCC)CCCCCC.O=S(=O)([N-]S(=O)(=O)C(F)(F)F)C(F)(F)F",
    "activity coefficient": 0.886
  },
  {
    "Molecule": "C=CCCC [1-pentene] + CCCCCCCCCCCCCC[P+](CCCCCC)(CCCCCC)CCCCCC.O=S(=O)([N-]S(=O)(=O)C(F)(F)F)C(F)(F)F",
    "activity coefficient": 0.842
  }
]

Now look at this one.
Exam item: Field request: activity coefficient | item: C=CCCCC [hex-1-ene] + CCCCCCCCCCCCCC[P+](CCCCCC)(CCCCCC)CCCCCC.O=S(=O)([N-]S(=O)(=O)C(F)(F)F)C(F)(F)F
Marked response: 0.93

----------
# reported activity coefficient; entries follow
Procedure Details: activity coefficient (dimensionless); of the first substance listed, at infinite dilution; xn = mol fraction of the nth substance listed
Conditions Used: 373.15 K; 101 kPa; Liquid; Chromatography; x1 = 0
Note: the reply should be a number with no unit written.

[
  {
    "Molecule": "CCC(C)=O [butanone] + CCCCCCCCCCCCCC[P+](CCCCCC)(CCCCCC)CCCCCC.O=S(=O)([N-]S(=O)(=O)C(F)(F)F)C(F)(F)F",
    "activity coefficient": 0.331
  }
]

Exam item: Field request: activity coefficient | item: C#CCCCCCC [1-octyne] + CCCCCCCCCCCCCC[P+](CCCCCC)(CCCCCC)CCCCCC.O=S(=O)([N-]S(=O)(=O)C(F)(F)F)C(F)(F)F
Marked response: 0.899

Exam item: Similarly, CCCCC [pentane] + CCCCCCCCCCCCCC[P+](CCCCCC)(CCCCCC)CCCCCC.O=S(=O)([N-]S(=O)(=O)C(F)(F)F)C(F)(F)F ?
Marked response: 1

Exam item: Similarly, C=CCCC [1-pentene] + CCCCCCCCCCCCCC[P+](CCCCCC)(CCCCCC)CCCCCC.O=S(=O)([N-]S(=O)(=O)C(F)(F)F)C(F)(F)F ?
Marked response: 0.85

Exam item: Similarly, Cc1ccccc1 [toluene] + CCCCCCCCCCCCCC[P+](CCCCCC)(CCCCCC)CCCCCC.O=S(=O)([N-]S(=O)(=O)C(F)(F)F)C(F)(F)F ?
Marked response: 0.51

Exam item: Similarly, C=CCCCC [hex-1-ene] + CCCCCCCCCCCCCC[P+](CCCCCC)(CCCCCC)CCCCCC.O=S(=O)([N-]S(=O)(=O)C(F)(F)F)C(F)(F)F ?
Marked response: 0.942

----------
Procedure Details: activity coefficient (dimensionless); of the first substance listed, at infinite dilution; xn = mol fraction of the nth substance listed
Conditions Used: 373.15 K; 101 kPa; Liquid; Chromatography; x1 = 0
Reported Property: activity coefficient
Note: the reply should be a number with no unit written.

Check out these entries, answers already filled in.
[
  {
    "Compound": "C#CCCCCCCC [1-nonyne] + CCCCCCCCCCCCCC[P+](CCCCCC)(CCCCCC)CCCCCC.O=S(=O)([N-]S(=O)(=O)C(F)(F)F)C(F)(F)F",
    "Readout Number": 0.979
  },
  {
    "Compound": "c1ccccc1 [benzene] + CCCCCCCCCCCCCC[P+](CCCCCC)(CCCCCC)CCCCCC.O=S(=O)([N-]S(=O)(=O)C(F)(F)F)C(F)(F)F",
    "Readout Number": 0.437
  },
  {
    "Compound": "C#CCCC [1-pentyne] + CCCCCCCCCCCCCC[P+](CCCCCC)(CCCCCC)CCCCCC.O=S(=O)([N-]S(=O)(=O)C(F)(F)F)C(F)(F)F",
    "Readout Number": 0.699
  }
]

Now look at this one.
Exam item: Field request: activity coefficient | item: CCCCCCCC [octane] + CCCCCCCCCCCCCC[P+](CCCCCC)(CCCCCC)CCCCCC.O=S(=O)([N-]S(=O)(=O)C(F)(F)F)C(F)(F)F
Marked response: 1.49
